Biological target: KDM4C (JMJD2C) (Homo sapiens, UniProt Q9H3R0)
Sequence (Q9H3R0 1-349): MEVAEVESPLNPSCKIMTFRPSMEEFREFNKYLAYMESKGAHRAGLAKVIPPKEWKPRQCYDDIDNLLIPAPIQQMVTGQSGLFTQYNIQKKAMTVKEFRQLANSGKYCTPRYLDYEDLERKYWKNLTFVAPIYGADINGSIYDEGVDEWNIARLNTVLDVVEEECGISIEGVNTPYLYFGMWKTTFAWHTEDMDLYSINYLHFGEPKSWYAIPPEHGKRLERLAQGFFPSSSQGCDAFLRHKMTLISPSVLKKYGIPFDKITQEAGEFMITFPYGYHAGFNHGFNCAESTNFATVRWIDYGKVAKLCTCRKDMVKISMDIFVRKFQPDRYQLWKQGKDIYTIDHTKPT
Assay: Histone lysine demethylase AlphaLISA assay, KDM4C
Type: biochemical
Conditions: read-out: KDM4C HDME Inhibition IC50
pIC50: −log10 of the molar value.
MEASURED_PARAMETER: pIC50

q: Form field: pIC50 recorded for CN(C)CCCCNCc1cc(C=O)ccn1 with KDM4C (JMJD2C) (Homo sapiens, UniProt Q9H3R0) (enter value)
a: < 5.60

q: Form field: pIC50 recorded for CN(C)C(=O)CNCc1cc(CNCC#N)ccn1 with KDM4C (JMJD2C) (Homo sapiens, UniProt Q9H3R0) (enter value)
a: < 5.60

q: Form field: pIC50 recorded for CCN(CC(C)N(C)C)C(=O)CNCc1cc(/C=N/CCO)ccn1 (stereo not shown) with KDM4C (JMJD2C) (Homo sapiens, UniProt Q9H3R0) (enter value)
a: 5.60 to 6.60

q: Form field: pIC50 recorded for CCN(CC)CCCCNCc1cc(/C=N/CCCO)ccn1 with KDM4C (JMJD2C) (Homo sapiens, UniProt Q9H3R0) (enter value)
a: < 5.60

q: Form field: pIC50 recorded for CCN(CC)CCCCNCc1cc(C=NNc2ccc(C#N)cc2)ccn1 with KDM4C (JMJD2C) (Homo sapiens, UniProt Q9H3R0) (enter value)
a: < 5.60

q: Form field: pIC50 recorded for CON=Cc1ccnc(CNCCCN(C)C)c1 with KDM4C (JMJD2C) (Homo sapiens, UniProt Q9H3R0) (enter value)
a: < 5.60

q: Form field: pIC50 recorded for CN(C)CCC/N=C/c1ccnc(CNCCCN(C)C)c1 with KDM4C (JMJD2C) (Homo sapiens, UniProt Q9H3R0) (enter value)
a: < 5.60

q: Form field: pIC50 recorded for CN(C)CCCCCNCc1cc(CN)ccn1 with KDM4C (JMJD2C) (Homo sapiens, UniProt Q9H3R0) (enter value)
a: < 5.60

q: Form field: pIC50 recorded for CCN(CCC#N)C(=O)CNCc1cc(/C=N/C2CC2)ccn1 with KDM4C (JMJD2C) (Homo sapiens, UniProt Q9H3R0) (enter value)
a: 5.60 to 6.60

q: Form field: pIC50 recorded for C(=N\C1CC1)/c1ccnc(CNCCCCN2CCC2)c1 with KDM4C (JMJD2C) (Homo sapiens, UniProt Q9H3R0) (enter value)
a: > 6.60

====

target: UniProt:O15550; test: Histone lysine demethylase AlphaLISA assay, KDM6A; type: biochemical; settings: read-out: KDM6A HDME Inhibition IC50
Sequence (O15550 919-1401): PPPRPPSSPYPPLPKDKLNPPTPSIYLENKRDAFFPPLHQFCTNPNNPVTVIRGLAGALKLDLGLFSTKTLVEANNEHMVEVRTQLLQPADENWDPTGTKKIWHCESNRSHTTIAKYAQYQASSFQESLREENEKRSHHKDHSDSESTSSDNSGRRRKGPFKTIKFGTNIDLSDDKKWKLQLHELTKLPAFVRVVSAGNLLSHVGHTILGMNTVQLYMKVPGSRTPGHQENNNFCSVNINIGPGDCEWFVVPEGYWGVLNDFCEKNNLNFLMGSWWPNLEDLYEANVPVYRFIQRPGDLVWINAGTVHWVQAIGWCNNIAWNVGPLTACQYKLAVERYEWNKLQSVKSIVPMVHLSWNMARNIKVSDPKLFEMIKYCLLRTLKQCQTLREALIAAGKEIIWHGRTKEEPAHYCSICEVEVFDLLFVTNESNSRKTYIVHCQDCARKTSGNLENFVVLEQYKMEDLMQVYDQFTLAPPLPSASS
Please provide measured IC50 for the entries that follow.

q: Name the recorded IC50 for CCN(CC)CCCCNCc1cc(/C=N/CC(CO)Cc2ccccc2)ccn1 (stereo not shown) [Compound 80] .
a: > 2.5 µM

q: Name the recorded IC50 for CCN(CCN(C)C)C(=O)CNCc1cc(C=O)ccn1 [Compound 101] .
a: > 2.5 µM

q: Name the recorded IC50 for CN(CCCn1cccn1)C(=O)CNCc1cc(/C=N/C2CC2)ccn1 [Compound 52] .
a: > 2.5 µM

q: Name the recorded IC50 for CCN(CCN(C)C)C(=O)CNCc1cc(/C=N/CC(CO)Cc2ccccc2)ccn1 (stereo not shown) [Compound 89] .
a: > 2.5 µM

q: Name the recorded IC50 for CCCCCCCC/N=C/c1ccnc(CNCC(=O)N(CC)CC)c1 [Compound 58] .
a: > 2.5 µM

q: Name the recorded IC50 for CN(C)CCCCNCc1cc(C=O)ccn1 [Compound 108] .
a: > 2.5 µM

q: Name the recorded IC50 for CCN(CC)CCCCNCc1cc(C2NCCCN2C)ccn1 (stereo not shown) [Compound 68] .
a: > 2.5 µM

q: Name the recorded IC50 for CCN(CC)CCN(CC)C(=O)CNCc1cc(C=O)ccn1 [Compound 116] .
a: > 2.5 µM

q: Name the recorded IC50 for O=C(CNCc1cc(/C=N/C2CC2)ccn1)N1CCC(Cc2ccccc2)CC1 [Compound 55] .
a: > 2.5 µM

q: Name the recorded IC50 for CNCc1ccnc(CNCCCN(C)Cc2ccccc2)c1 [Compound 17] .
a: > 2.5 µM

====

system: SU DHL6; test: Cell proliferation assay SU DHL6; type: cell-based; conditions: Homo sapiens, SU-DHL-6; SU DHL6, B cell lymphoma; method of Example 5
MEASURED_PARAMETER: EC50

q: Form field: EC50 recorded for CCN(CCN(C)C)C(=O)CNCc1cc(CNC(=O)C(F)(F)F)ccn1 with SU DHL6 (enter value)
a: < 250 nM

====

Please provide measured IC50 for the entries that follow.

q: Form field: IC50 recorded for CCN(CC)CCCCNC(=O)CNCc1cc(C=O)ccn1 with KDM5C (JARID1C) (Homo sapiens, UniProt P41229) (enter value)
Sequence (P41229 2-1560): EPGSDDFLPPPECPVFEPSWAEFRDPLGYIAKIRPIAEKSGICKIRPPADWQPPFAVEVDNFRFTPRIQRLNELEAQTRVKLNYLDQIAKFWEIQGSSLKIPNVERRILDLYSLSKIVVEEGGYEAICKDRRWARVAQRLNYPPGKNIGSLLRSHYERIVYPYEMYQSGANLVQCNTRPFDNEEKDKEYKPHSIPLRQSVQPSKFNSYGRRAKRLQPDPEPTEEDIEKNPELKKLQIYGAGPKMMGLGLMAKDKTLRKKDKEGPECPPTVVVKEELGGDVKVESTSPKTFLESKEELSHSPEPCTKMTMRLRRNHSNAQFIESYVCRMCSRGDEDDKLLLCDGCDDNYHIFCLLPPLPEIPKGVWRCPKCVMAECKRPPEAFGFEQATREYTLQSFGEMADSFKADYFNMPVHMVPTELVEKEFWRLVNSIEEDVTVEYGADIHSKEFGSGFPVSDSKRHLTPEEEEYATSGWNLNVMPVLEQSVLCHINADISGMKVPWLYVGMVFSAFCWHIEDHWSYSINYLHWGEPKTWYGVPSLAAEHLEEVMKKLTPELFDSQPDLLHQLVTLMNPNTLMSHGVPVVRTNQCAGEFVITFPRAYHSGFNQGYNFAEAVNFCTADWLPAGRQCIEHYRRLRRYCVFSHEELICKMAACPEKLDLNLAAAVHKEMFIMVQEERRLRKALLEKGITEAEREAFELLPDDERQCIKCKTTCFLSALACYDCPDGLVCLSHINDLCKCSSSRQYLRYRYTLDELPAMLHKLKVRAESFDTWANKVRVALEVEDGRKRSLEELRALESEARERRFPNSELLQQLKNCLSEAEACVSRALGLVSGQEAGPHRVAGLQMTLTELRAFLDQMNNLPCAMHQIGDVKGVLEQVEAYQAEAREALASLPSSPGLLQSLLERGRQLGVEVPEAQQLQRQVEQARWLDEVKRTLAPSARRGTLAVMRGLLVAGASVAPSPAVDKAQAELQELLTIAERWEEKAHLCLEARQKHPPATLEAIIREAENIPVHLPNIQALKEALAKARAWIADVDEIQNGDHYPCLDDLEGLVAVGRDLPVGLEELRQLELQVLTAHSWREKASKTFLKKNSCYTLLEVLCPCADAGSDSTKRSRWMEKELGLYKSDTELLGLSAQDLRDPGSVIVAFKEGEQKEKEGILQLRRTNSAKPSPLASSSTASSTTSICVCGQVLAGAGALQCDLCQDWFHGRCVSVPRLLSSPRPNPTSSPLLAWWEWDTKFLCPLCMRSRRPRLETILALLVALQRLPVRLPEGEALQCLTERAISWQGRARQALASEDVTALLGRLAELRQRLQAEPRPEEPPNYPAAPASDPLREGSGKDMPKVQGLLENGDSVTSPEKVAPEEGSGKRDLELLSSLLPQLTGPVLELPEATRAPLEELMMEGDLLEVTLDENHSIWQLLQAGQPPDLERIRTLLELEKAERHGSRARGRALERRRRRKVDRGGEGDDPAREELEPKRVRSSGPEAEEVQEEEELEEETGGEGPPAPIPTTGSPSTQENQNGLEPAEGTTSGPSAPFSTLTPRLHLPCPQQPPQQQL
a: < 250 nM

q: Form field: IC50 recorded for O=Cc1ccnc(CNCC(=O)NC2CCN(Cc3ccccc3)C2)c1 (stereo not drawn) with KDM5C (JARID1C) (Homo sapiens, UniProt P41229) (enter value)
a: 250 to 2500 nM

q: Form field: IC50 recorded for CN(C)CCCNCc1cc(/C=N/CCN(C)C)ccn1 with KDM5C (JARID1C) (Homo sapiens, UniProt P41229) (enter value)
a: < 250 nM

q: Form field: IC50 recorded for CN(C)CCC/N=C/c1ccnc(CNCCCN(C)C)c1 with KDM5C (JARID1C) (Homo sapiens, UniProt P41229) (enter value)
a: < 250 nM

q: Form field: IC50 recorded for CN(C)CCCNCc1cc(CN)ccn1 with KDM5C (JARID1C) (Homo sapiens, UniProt P41229) (enter value)
a: < 250 nM

q: Form field: IC50 recorded for CN(C)C(=O)CNCc1cc(CNCC#N)ccn1 with KDM5C (JARID1C) (Homo sapiens, UniProt P41229) (enter value)
a: > 2500 nM

q: Form field: IC50 recorded for CN(C)CC1CCC(CNCc2cc(/C=N/C3CC3)ccn2)CC1 (stereo not drawn) with KDM5C (JARID1C) (Homo sapiens, UniProt P41229) (enter value)
a: < 250 nM

q: Form field: IC50 recorded for O=C(CNCc1cc(/C=N/C2CC2)ccn1)NC1CCN(Cc2ccccc2)C1 (stereo not drawn) with KDM5C (JARID1C) (Homo sapiens, UniProt P41229) (enter value)
a: < 250 nM

q: Form field: IC50 recorded for COc1ccccc1CN1CCC(NC(=O)CNCc2cc(CNC3CC3)ccn2)CC1 with KDM5C (JARID1C) (Homo sapiens, UniProt P41229) (enter value)
a: < 250 nM

q: Form field: IC50 recorded for CN(C)C/C=C\CNCc1cc(C=O)ccn1 with KDM5C (JARID1C) (Homo sapiens, UniProt P41229) (enter value)
a: < 250 nM

q: Form field: IC50 recorded for CCCNCc1cc(CNC2CC2)ccn1 with KDM5C (JARID1C) (Homo sapiens, UniProt P41229) (enter value)
a: > 2500 nM

q: Form field: IC50 recorded for CN1CCN(C(=O)CNCc2cc(/C=N/C3CC3)ccn2)CC1 with KDM5C (JARID1C) (Homo sapiens, UniProt P41229) (enter value)
a: < 250 nM

q: Form field: IC50 recorded for CC(C#N)NCc1ccnc(CNCCCN(C)C)c1 (stereo not drawn) with KDM5C (JARID1C) (Homo sapiens, UniProt P41229) (enter value)
a: < 250 nM

q: Form field: IC50 recorded for CN(C)CCCCCNCc1cc(CN)ccn1 with KDM5C (JARID1C) (Homo sapiens, UniProt P41229) (enter value)
a: < 250 nM

q: Form field: IC50 recorded for CCN(CCC#N)C(=O)CNCc1cc(/C=N/C2CC2)ccn1 with KDM5C (JARID1C) (Homo sapiens, UniProt P41229) (enter value)
a: < 250 nM

q: Form field: IC50 recorded for CCN(CCN(C)C)C(=O)CNCc1cc(CNC(=O)C(F)(F)F)ccn1 with KDM5C (JARID1C) (Homo sapiens, UniProt P41229) (enter value)
a: 250 to 2500 nM

q: Form field: IC50 recorded for CCCCCCCC/N=C/c1ccnc(CNCC(=O)N(CC)CC)c1 with KDM5C (JARID1C) (Homo sapiens, UniProt P41229) (enter value)
a: < 250 nM

q: Form field: IC50 recorded for COC(=O)CNCc1cc(/C=N/C2CC2)ccn1 with KDM5C (JARID1C) (Homo sapiens, UniProt P41229) (enter value)
a: < 250 nM

q: Form field: IC50 recorded for CCN(CC)CCCCNCc1cc(/C=N/CC(F)(F)C(F)(F)F)ccn1 with KDM5C (JARID1C) (Homo sapiens, UniProt P41229) (enter value)
a: < 250 nM

q: Form field: IC50 recorded for O=Cc1ccnc(CNCC(=O)N2CCC(Cc3ccccc3)CC2)c1 with KDM5C (JARID1C) (Homo sapiens, UniProt P41229) (enter value)
a: > 2500 nM

q: Form field: IC50 recorded for CON=Cc1ccnc(CNCCCN(C)C)c1 with KDM5C (JARID1C) (Homo sapiens, UniProt P41229) (enter value)
a: > 2500 nM
